# measured.target: RAC-alpha serine/threonine-protein kinase (Homo sapiens)
# Sequence (P31749 whole entry): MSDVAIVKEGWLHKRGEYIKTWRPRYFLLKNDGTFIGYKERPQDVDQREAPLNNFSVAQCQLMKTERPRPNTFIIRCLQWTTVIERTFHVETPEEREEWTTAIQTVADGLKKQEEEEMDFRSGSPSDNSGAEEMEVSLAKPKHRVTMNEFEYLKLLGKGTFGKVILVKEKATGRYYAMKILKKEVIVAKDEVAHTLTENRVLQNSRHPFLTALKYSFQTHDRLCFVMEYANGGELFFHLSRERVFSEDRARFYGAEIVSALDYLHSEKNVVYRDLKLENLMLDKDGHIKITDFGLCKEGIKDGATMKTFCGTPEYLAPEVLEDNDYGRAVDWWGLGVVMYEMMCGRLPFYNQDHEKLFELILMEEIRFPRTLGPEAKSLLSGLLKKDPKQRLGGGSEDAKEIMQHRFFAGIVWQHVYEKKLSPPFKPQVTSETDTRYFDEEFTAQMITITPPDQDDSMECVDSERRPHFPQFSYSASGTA
experimental.endpoint: pIC50
The scale used: pIC50 is minus the common logarithm of the concentration in molar units.

What measured pIC50 goes with N[C@H](COc1cncc(-c2ccc3c(=O)[nH]ccc3c2)c1)Cc1c[nH]c2ccccc12 ? 5.99

Reported pIC50, molecule Cc1n[nH]c2cnc(-c3cncc(OC[C@@H](N)Cc4ccc(Br)cc4)c3)cc12 : ____ 8.30

Query: pIC50; subject: N[C@H](COc1cncc(-c2ccc3[nH]nc(N4CCOCC4)c3c2)c1)Cc1c[nH]c2ccccc12 7.74

Reported pIC50 for Cc1cc(C2C(=O)Nc3ccc(-c4cncc(OC[C@@H](N)Cc5c[nH]c6ccccc56)c4)cc32)oc1C (stereo not given in full) : what is it? 8.00

Entry under review: N[C@H](COc1cncc(NC(=O)c2ccncc2)c1)Cc1c[nH]c2ccccc12 . Reported pIC50? 5.69

---

# measured.target: RAC-alpha serine/threonine-protein kinase (Homo sapiens)
pIC50: −log10 of the molar value.
Decision: pIC50 >= 7 yields Y, all other cases yield N.

{"columns": ["compound", "class.assignment"],
 "data": [
  ["N[C@H](COc1cncc(-c2ccc3ccccc3c2)c1)Cc1c[nH]c2ccccc12", "N"]
]}

Is it the case that Cc1n[nH]c2cnc(-c3cncc(OC[C@@H](N)Cc4cccc(F)c4)c3)cc12 has pIC50 reaching or exceeding 7? Y

Form field: pIC50 at least 7? Entry: N[C@H](COc1cncc(-c2ccc3[nH]nc(C4CC4)c3c2)c1)Cc1c[nH]c2ccccc12 Y

---

So I've got pIC50 readings for RAC-alpha serine/threonine-protein kinase (Homo sapiens), take a look.
In plain terms, pIC50 is the concentration in mol/L turned into minus its base-10 logarithm.

{"columns": ["compound", "pIC50"],
 "data": [
  ["N[C@H](COc1cncc(-c2ccc3[nH]nc(-c4cccs4)c3c2)c1)Cc1c[nH]c2ccccc12", 8.89],
  ["N[C@H](COc1cncc(-c2ccncc2)c1)Cc1c[nH]c2ccccc12", 6.61],
  ["N[C@H](COc1cncc(-c2ccc3ncccc3c2)c1)Cc1c[nH]c2ccccc12", 6.51],
  ["N[C@H](COc1cncc(-c2ccc3c(c2)CC(=O)N3)c1)Cc1ccccc1", 7.80],
  ["N[C@H](COc1cncc(-c2cnc3c(c2)CC(=O)N3)c1)Cc1c[nH]c2ccccc12", 8.13]
]}

Param readout= pIC50; system= RAC-alpha serine/threonine-protein kinase (Homo sapiens); entry= O=C1C(Sc2cccc(Cl)c2Cl)=C(Cl)C(=O)c2[nH]ncc21 ; returns value. 4.91

Request: pIC50, test system RAC-alpha serine/threonine-protein kinase (Homo sapiens), entry CC1C(=O)Nc2ccc(-c3cncc(OC[C@@H](N)Cc4c[nH]c5ccccc45)c3)cc21 (some centres not stated) 8.40

// lookup pIC50 | system=RAC-alpha serine/threonine-protein kinase (Homo sapiens) | key= N[C@H](COc1cncc(-c2ccc3[nH]c(=O)sc3c2)c1)Cc1c[nH]c2ccccc12 7.00

Notebook: pull reported pIC50 for RAC-alpha serine/threonine-protein kinase (Homo sapiens), entry Cc1cc(C[C@H](N)COc2cncc(-c3cc4c(C)n[nH]c4cn3)c2)ccc1F 8.60

Lab request: please report pIC50 under test system RAC-alpha serine/threonine-protein kinase (Homo sapiens) for Cc1n[nH]c2cnc(-c3cncc(OC[C@@H](N)Cc4cccc(OCC5CCCCC5)c4)c3)cc12 5.87

What value of pIC50 on RAC-alpha serine/threonine-protein kinase (Homo sapiens) does Cc1n[nH]c2cnc(-c3cncc(OC[C@@H](N)Cc4cccc(OCCN5CCOCC5)c4)c3)cc12 have? 6.12

Observed pIC50 on RAC-alpha serine/threonine-protein kinase (Homo sapiens) for Cc1n[nH]c2cnc(-c3cncc(OC[C@@H](N)Cc4cccc(OCC5CCNCC5)c4)c3)cc12 , please. 8.17

Record lookup: for RAC-alpha serine/threonine-protein kinase (Homo sapiens), what pIC50 belongs to N[C@H](COc1cncc(-c2ccc3c(c2)/C(=C/c2ccc[nH]2)C(=O)N3)c1)Cc1ccccc1 ? 9.22

Under RAC-alpha serine/threonine-protein kinase (Homo sapiens): pIC50 value of N[C@H](COc1cncc(-c2ccc3c(c2)C(C2CC2)C(=O)N3)c1)Cc1c[nH]c2ccccc12 (some centres not stated) ? 8.48
